The entries below are paired with their reported IC50.
target: phencyclidine (PCP) receptors (noncompetitive NMDA antagonist binding site); assay: Tritiated 1[1-(2 thienyl)cyclohexyl]piperidine (TCP) binding, designated RBS1; conditions: Table 1, read-out: RBSI IC50
The response must be a number in µM with no trailing unit.

Here's what some known entries look like.
c1ccc(C2(N3CCCCC3)CCCCC2)cc1 [PCP, phencyclidine]	0.04
c1ccc2c(c1)C[C@H]1CN(CC3CC3)[C@@]23CCCC[C@@H]13 (relative stereo) [Example 20]	0.051
CCCN1C[C@@H]2Cc3ccccc3[C@]13CCCC[C@@H]23 (relative stereo) [Example 19]	0.054
CN1C[C@@H]2Cc3ccccc3[C@]13CCCC[C@@H]23 (relative stereo) [Example 16]	0.137

// query What does the record list as IC50 for c1csc(C2(N3CCCCC3)CCCCC2)c1 [TCP, 1[1-(2 thienyl)cyclohexyl]piperidine] ?
// result 0.009

// query Which IC50 is reported for this compound? c1ccc2c(c1)C[C@H]1CN[C@@]23CCCC[C@@H]13 (relative stereo) [Example 14]
// result 0.086
